System: SN12C renal
Assay: NCI-60 one-dose screen, 48 h
Details: 10 µM unless noted
About 83,000 compounds went through this panel and 20% of them were active in at least one assay; those are over-represented in the sample as a whole. The source made the active and inactive calls. How the source made its calls: active means growth percent below 10; inactive means the rest.
Classes to choose from: active, inactive

Worked set:
molecule=Cn1cc(-c2csc(-c3cn(CCCN4CCCCC4)c4ccc(F)cc34)n2)c2cccnc21 classification=inactive
molecule="CCN1CCN(C(=O)[C@@]2(C)CC[C@]3(C)CC[C@]4(C)C(=CC(=O)[C@@H]5[C@@]6(C)CC[C@H](OC7C[C@@H](O)[C@@H](O)C(C)O7)C(C)(C)[C@@H]6CC[C@]54C)[C@@H]3C2)CC1 (stereo partly specified)" classification=active
molecule=Cc1cc(Nc2ccc(F)cc2)nc(N2CCN(c3ccnc4cc(Cl)ccc34)CC2)n1 classification=inactive
molecule=CC/C=C\C[C@H]1CC=C2C(=O)C=C[C@@H]2CC=CCCCC(=O)O[C@@H](CCCCC)CC=C2C(=O)C=C[C@@H]2CC=CCCCC(=O)O[C@@H](CCCCC)CC=C2C(=O)C=C[C@@H]2CC=CCCCC(=O)O[C@@H](CCCCC)CC=C2C(=O)C=C[C@@H]2CC=CCCCC(=O)O1 classification=active
molecule=O=C(CCCCCn1c2ccccc2c2c3c(c4c5ccccc5[nH]c4c21)C(=O)N(O)C3=O)N1CCOCC1 classification=inactive
molecule=COc1cc2ncnc(Nc3ccc(OCc4cccc(F)c4)c(Cl)c3)c2cc1NC(=O)C1CCCC1 classification=inactive
molecule="COc1cc(/C=C2\\C(=O)N(CC(O)COc3cc(O)c4c(=O)cc(-c5ccccc5)oc4c3)c3ccccc32)cc(OC)c1O (stereo unspecified)" classification=inactive
molecule=Clc1ccc2c(NCCNc3nc(-c4ccccc4)cc(-c4ccccc4)n3)ccnc2c1 classification=active
molecule="Nc1nc(Br)nc2c1ncn2C1CC(O)C(CO)O1 (stereo unspecified)" classification=inactive
molecule=COc1cccc(-c2nn(-c3ccccc3)cc2-c2ccnc(NCCCNS(=O)(=O)c3cccc(F)c3)c2)c1 classification=inactive

q: Given COc1ccc(C2=NN(c3nc(-c4ccc(OC)cc4)c(C#N)c(=O)n3C)C(=O)CC2)cc1 , state the outcome it received in this test.
a: inactive

q: Given C=C(C)[C@@H]1CC[C@]2(/C=N/Nc3ccncc3)CC[C@]3(C)[C@H](CC[C@@H]4[C@@]5(C)CCCNC(C)(C)[C@@H]5CC[C@]43C)[C@@H]12 , state the outcome it received in this test.
a: inactive

q: Given Cc1ccc(C)c2c1CCC2C(C)C (stereo unspecified) , state the outcome it received in this test.
a: inactive

q: Given COC1=C(Br)C(=O)C(OC)=C(Br)C1=O , state the outcome it received in this test.
a: inactive

q: Given Cn1cc(-c2csc(-c3cn(CCCN4CCCCC4)c4ccc(Br)cc34)n2)c2cccnc21 , state the outcome it received in this test.
a: active

q: Given COC(=O)[C@]12CC[C@@H](C)[C@H](C)[C@@H]1C1=CC[C@@H]3[C@@]4(C)C=C(O)C(=O)C(C)=C4CC[C@@]3(C)[C@]1(C)CC2 , state the outcome it received in this test.
a: inactive
